# target_system: TgPheRS V262A M484I (Toxoplasma gondii, UniProt A0A125YPN6, M484I/V262A)
# protocol_notes: Enzyme assay, TgPheRS V262A M484I double mutant
# condition_set: Table S4, V262A-M484I; read-out: IC50 (enzyme inhibition)
readout: IC50 (nM)
Dear colleague, please return just the value in nM, with no unit written.

# input Find the recorded IC50 belonging to `COc1ccc(NC(=O)N2CCCCN3[C@H](CN(C)C)[C@H](c4ccc(C#Cc5ccccc5)cc4)[C@@H]3C2)cc1` and report it.
# output 197

====

# protocol_notes: in vivo
# Design: species or system mouse
# condition_set: female, CD1, mouse, in vivo, po, 10 mg/kg/day, mouse, 10 mg/kg/day p.o., Day 8
# Method: […]. All mice were fed prior to dosing. After dosing, 200 uL of blood was collected at predetermined time points (pre, 1, 3, 7, 24 h). Blood samples were processed for plasma by centrifugation at approximately 4 °C, 4,500 g for 15 min within min of collection. […] Plasma concentration versus time data was analyzed by non-compartmental approaches using the Phoenix WinNonlin 6.3 software program. […]
readout: half-life (h)
# output: bare number, implied unit h

# input Endpoint output: half-life of `COc1ccc(NC(=O)N2CCCCN3[C@H](CN(C)C)[C@H](c4ccc(C#Cc5ccccc5)cc4)[C@@H]3C2)cc1` . Value?
# output 81.3
